Assay: physchem
pKa for assorted molecules

Record excerpt, results attached:
Molecule: COc1ccc(Cl)cc1C(=O)NCCc1ccc(S(=O)(=O)NC(=O)NC2CCCCC2)cc1 [glybenclamide]
Reported Property: pKa
Recorded Value: 5.75
//
Molecule: OCCN(CCO)c1nc(N2CCCCC2)c2nc(N(CCO)CCO)nc(N3CCCCC3)c2n1 [dipyridamole]
Reported Property: pKa
Recorded Value: 6.22
//
Molecule: COc1ccc(CCN2CCC(Nc3nc4ccccc4n3Cc3ccc(F)cc3)CC2)cc1 [astemizole]
Reported Property: pKa
Recorded Value: 5.99
//
Molecule: Cc1cccc(Nc2ccccc2C(=O)O)c1C [mefenamic acid]
Reported Property: pKa
Recorded Value: 4.39

Notebook: Clc1ccccc1C(c1ccccc1)(c1ccccc1)n1ccnc1 [clotrimazole] , pKa read as 6.02
